Assay Name: yeast display, Sf9 membrane polyspecificity reagent, FACS + sequencing; frameworks hold sequencing errors
Readout Type: polyreactivity (PSR sort gate)

Below: 4 sequences and their reported polyreactivity (PSR sort gate).
QVQLVESGGGLVQAGGSLRLSCAASGFTFLRYAMGWYRQAPGKERELVAGITSRGASTYYADSVKGRFTISRDNAKTTVYLQINSLKPEDTAVYYCAADGSHTRYRYDYWGQGTQVTVSS | high polyreactivity
QVQLVESGGGLVQAGGSLRLSCAASGRTFAANTMGWYRQAPGKERELVAAISSSGGSTSYADSVKGRFTISRDNAKNTVYLQMNSLKPEDTAVYYCNTLLRRDFNYWGQGTQVTVSS | high polyreactivity
QVQLVESGGGLVQAGGSLRLSCAASGRISYTYSAMGWYRQAPGKERELVAAITRRGGSTSYADSVKGRFTISRDNAKNTVYLQMNSLKPDDTAVYYCAAVGSFHIVDYWGQGTQVTVSS | high polyreactivity
QVKLVESGGGLVQAGGSLRLSCAASGSISLYYAMGWYRQAPGKERELVAAISDSGGDTYYADSVKGRFTISRDNAKITVYLQMNSLKPADTAVYYCATDTAYWLWVYALLEYWGQGTQVTVSS | low polyreactivity

Provide one value: measured polyreactivity (PSR sort gate) of QVQLVESAVGLVQAGGSLPLSCDASSSTIYPYAMGWYRQAPGKERELVAAISSGGSTSYADSVKGRFTISRDNAKNTVYLQMNSLKPEDTAVYYCNADPLQCKLWTYFFGFPGYYWGQGTQVTVSS
low polyreactivity

Provide one value: measured polyreactivity (PSR sort gate) of QVQLVESGGGLVQAGGSLRLSCAASGITFILYAMGWYRQAPGKERELVASITSGGSTDYADSVKGRFTISRDNAKTTVYLQMNSLKPEDTAVYYCAADGRTYHHHDGGWYRYDYWGQGTQVTVSS
low polyreactivity

Provide one value: measured polyreactivity (PSR sort gate) of QVQLVESGGGLVQAGGSLRLSCAASGSTFYINAMGWYRPAPGKERELVAAITDSGGSTYYADSVKGRFTISRDNAKNTVSLQMNSLKPEDTAVYYCATDGYDPRGYDYWGQGTQVTVSS
high polyreactivity

Provide one value: measured polyreactivity (PSR sort gate) of QVQLVESGGGLVQAGGSLRLICAASGIIFYKYTMGWYRQAPGKERELVAAITKSGVRTYYADSVKGRFTISRDNAKNTVYLQMNSLKPEDTAVYYCAAKTPTKDRGSDFDYWGQGTQVTVSS
high polyreactivity

Provide one value: measured polyreactivity (PSR sort gate) of QVQLVESGGGLVQAGGSLRISCAASGSIFRGYGMGWDRQAPGKERELVAAINYSGGSTYYADSVKGRYTISRDNAKNTVYLQMNSLKPEDTAVYYCNKVYYRQRGEYYYWGQGTQVTVSS
high polyreactivity

Provide one value: measured polyreactivity (PSR sort gate) of QVQLVESGGGLVQAGGSLRLSCAASGSIFRLYAMGWYRQAPGKERELVAAITRGDSTNYADSVKGRFTISRDNAKNTVYLQMNSLKPEDTAVYYCAVTGRLYAHPQGYDYWGQGTQVTVSS
low polyreactivity

Provide one value: measured polyreactivity (PSR sort gate) of QVKLVDSGGGLVQAGGSVGLSCAASGRIFPWYTMGWYRQAPGKERELVAVISSGGRTHYADSVKGRFTISRDNAKNTVYLQMYSLNPEDTAVYDCAAESRYQRYDYWGQGTQVTVSS
high polyreactivity

###

Assay Name: yeast display, Sf9 membrane polyspecificity reagent, FACS + sequencing; frameworks hold sequencing errors
Readout Type: polyreactivity (PSR sort gate)

Below: 8 sequences and their reported polyreactivity (PSR sort gate).
QVQLVESGGGLVQAGGRLRLSCAASGITSDVYAMGWYRQAPGKERELVAAISSAGSTYYADSVKGRFTISRDNAKNTVYLQMNSLKPEDTAVYYCDAAGYPQTYLYYYWGQGTQVTVSS | low polyreactivity
QVQLVESGGGLVQAGGSLRLSCAASGFIFVRNAMGWYRQAPGKERELVAAITGRGGRTYYADSVKGRFTISRDNAKNTVYLQMNSLKPEDTAVYYCAKDSPDDHFGYWGQGTQVTVSS | high polyreactivity
QVQLVESGGGLVQAGGSLRLSCAASGSTSYRYAMGWYRQAPGKERELVAAISSSGGSTYYADSVKGRFTISRDNAKNTVYLQMNSLKPEDTAVYYCAARFYSGPGGYTMYYWGQGTQVTVSS | high polyreactivity
QVQLVESGGGLVQAGGSLRLSCAASGRTSAINAMGWYRQAPGKERELVADITRTGGTYADSVKGRFTISRDNAKNNVYLQMNSLKPEVTAVYYCAAVGAWRFDYWGQGTQVTVSS | high polyreactivity
QVQLVESGGGLVQAGGSLRLSCAASGYTYPQNAMGWYIKAPGKERDLFAAISRSGGSTNYADSVKGRNTISRDNAKNTVYLQMNILKPEDTAVYYCARYNYTRQTRVEYGYWGQCTQVTVSS | high polyreactivity
QVQLVESGGGLVQAGGSLRLSCAASGRNFSHNAMGWYRQAPGKERELVAAISSRAGRTYADSVKGRFTISRDNAKYTVYLQMNSLKQEDTGVYYCAVRSKGKDVGYWGQGTQVTVSS | high polyreactivity
QVQLVESGGGLVQAGGSLRLSCAASGIIFRYYAMGLYRQAPGKERELVAAITTGGSTYYADSVKGRFTISRDNAKNTVYLQMNSLKPEDTAVYYCAAQILVRHIPYYYWGQGTQVTVSS | high polyreactivity
QVQLVESGGGLVQAGGSLRLSCAASGSIIRKYAMGWYRQAHGKERELVAAISRRTGNTYYADSVKGRFTISRDNAKNTVYLQMNSLKPEDTAVYYCAADYYSSSSWSEVDSWGQGTQVTVSS | high polyreactivity

Provide one value: measured polyreactivity (PSR sort gate) of QVQLVESGGGLVQAGGRLRLSCAASGFTFYRYAMGWYRQAPGKVRQLVATISASGGSTYYADSVKGRFTISRDNAKNTVYLQMNSLKPEDTAVYYCAVRYKSWYGFNYWGQGTQVTVSS
high polyreactivity

Provide one value: measured polyreactivity (PSR sort gate) of QVQLVESGGGLVQAGGSLSLSCAASGSTFRHYAMGGYRQAPGKERELVAAISSRGGSTHYADSVKGRFTISRDNAKNTVYLQMNSLKPEDTAVYYCARDTDTQSSRSSDYDYWGQGTQVNVSS
low polyreactivity

Provide one value: measured polyreactivity (PSR sort gate) of QVQLVESGGGLVQAGGSLRLSCAASGGTFPSNAMGWYRQAPGQERELVAAITGSSDTTYYADSVKGRFTISRDNAKNTVYLQMNSLKPEDTAVYYCAADTPRDTNRYEYWGQGTQVTVSS
low polyreactivity

###

Assay Name: yeast display, Sf9 membrane polyspecificity reagent, FACS + sequencing; frameworks hold sequencing errors
Readout Type: polyreactivity (PSR sort gate)

Below: 4 sequences and their reported polyreactivity (PSR sort gate).
QVQLVESGGGLVQAGGSLRLSCAASGRIFTTYAMGWYRQAPGKEREFVAAINYSGGRTYYAESVKGRFTISRDNAKNTVYLQMISLKPEETAVYYCAARSLFRGDYWGQGTQVTVSS | high polyreactivity
QVQHVESGGGLVQAGGSLRLSCAASGIISYKNVMGWYRQAPGKERELVAAISGRGGSTYYADSVKGRFTISRDNAKNTVYLQMNSLKPEDTAVYYCAKYPGISGYNYWGQGTQVTVSS | high polyreactivity
QVQHVESGGGLVQAGGSLRLSCAASGRIFVRNAMGWYRQARGKERELVADITNGGSTNYADSVKGRFTISRDNAKNTVYLQMNSLKPEDTAVYYCAVERYRYPFDYWGQGTQVTVSS | low polyreactivity
QVQLVESGGGLVQAGGSLRLSCAASGSIFVKNAMGWYRPAPGKEREFVAAITTSGGSTNYADSVKGRFTISRDNAKNTVYLQMTSLKPEDTAVYYCNTDIFPAAYDYWVQGTQVTVSS | low polyreactivity

Provide one value: measured polyreactivity (PSR sort gate) of QVQLVESGGGLVQAGGSLRLSCAASGFIFYYYAMGWYRQAPGKERELVAAISWSGGRTYYADSVKGRFTISRDNAKNTVYLQMNSLKPEDTAVYYCAAVGYSKRYIYWGQGTQVTVSS
high polyreactivity

###

Assay Name: yeast display, Sf9 membrane polyspecificity reagent, FACS + sequencing; frameworks hold sequencing errors
Readout Type: polyreactivity (PSR sort gate)

QVQLVESGGGLVQAGGSLRLSCAASGRIFGYYAMGWYRQAPGKERELVAAISSSGGSTYYADSVKGRFTISRDNAKNTVYLQMNSLKPEDTAVYYCAREFSDGLSGKFDYWGQGTQVTVSS | low polyreactivity
QVQLVESGGGLVQAGGSLRLSCAPSGISIIGYAMGWYRQAPGKVRELVASIDSGGITNYADSVKGRFTISRDNAKNTVYLQMNSLKPEDTAVYDCAARVAYFGGPYYSWGEGTQVTVSS | high polyreactivity
QVQLVESGGGLVQAGGSLRLSCAASGRTFTTNAMGWYSQARGKERELVAAINSGGSTNYADSVKGRFTISRDNAKNTVYLQMNRLKPEDTAVYYCAKRQRDYSSVFEVDYWGQGTQVTVSS | low polyreactivity
QVQLVESGGGLVQAGGSLRLSCAASGRTFGFNVMGCSRQAPGKERELVAAISWSGGSTYYADSVKGRFTISRDNAKNTVYLQLNSLKPEDTAVYYCNKRDDHRYGYWGQGTQVTVSS | low polyreactivity

Provide one value: measured polyreactivity (PSR sort gate) of QVQLVESGGGLVQAGGSLRLSCAASGSTFPANAMGWYRQAPGKERELVATISWSGGRTYYADSVKGRFTISRDNAKNTVYLQMNSLKPEDTAVYYCAANGHGRVYFGGGNWGQGTQVTVSS
high polyreactivity
